This section lists AC50 readings for Neuronal acetylcholine receptor subunit alpha-4 (Homo sapiens).

Below, each entry is followed by its recorded AC50 result.
• COc1cc2c(Nc3ccc(Br)cc3F)ncnc2cc1OCC1CCN(C)CC1 = 9.6 µM
• N[C@H](Cc1cc(I)c(Oc2cc(I)c(O)c(I)c2)c(I)c1)C(=O)O = > 10 µM
• COc1ccnc(C[S+]([O-])c2nc3ccc(OC(F)F)cc3[nH]2)c1OC (stereo not drawn) = > 10 µM
• COc1cccc2c1C(=O)c1c(O)c3c(c(O)c1C2=O)C[C@@](O)(C(C)=O)C[C@@H]3O[C@H]1C[C@H](N)[C@H](O)[C@H](C)O1 = 10.8 µM
• CCCC(C)(COC(N)=O)COC(=O)NC(C)C (stereo not drawn) = > 10 µM

INPUT: Let me know recorded AC50 for `CC(=O)S[C@@H]1CC2=CC(=O)CC[C@]2(C)[C@H]2CC[C@@]3(C)[C@@H](CC[C@@]34CCC(=O)O4)[C@H]12` , thanks.
OUTPUT: > 30 µM

INPUT: Report measured AC50; entry is CCOC(=O)NNc1ccc(N(CC)CC(C)O)nn1 (stereo not drawn)
OUTPUT: > 30 µM

INPUT: Consider the compound `CC(C)N(CCCCOCC(=O)NS(C)(=O)=O)c1cnc(-c2ccccc2)c(-c2ccccc2)n1` . State its measured AC50.
OUTPUT: > 30 µM

----------
Target: Glucocorticoid receptor (Homo sapiens); also: assay procedure not described here
Sequence (P04150 whole entry): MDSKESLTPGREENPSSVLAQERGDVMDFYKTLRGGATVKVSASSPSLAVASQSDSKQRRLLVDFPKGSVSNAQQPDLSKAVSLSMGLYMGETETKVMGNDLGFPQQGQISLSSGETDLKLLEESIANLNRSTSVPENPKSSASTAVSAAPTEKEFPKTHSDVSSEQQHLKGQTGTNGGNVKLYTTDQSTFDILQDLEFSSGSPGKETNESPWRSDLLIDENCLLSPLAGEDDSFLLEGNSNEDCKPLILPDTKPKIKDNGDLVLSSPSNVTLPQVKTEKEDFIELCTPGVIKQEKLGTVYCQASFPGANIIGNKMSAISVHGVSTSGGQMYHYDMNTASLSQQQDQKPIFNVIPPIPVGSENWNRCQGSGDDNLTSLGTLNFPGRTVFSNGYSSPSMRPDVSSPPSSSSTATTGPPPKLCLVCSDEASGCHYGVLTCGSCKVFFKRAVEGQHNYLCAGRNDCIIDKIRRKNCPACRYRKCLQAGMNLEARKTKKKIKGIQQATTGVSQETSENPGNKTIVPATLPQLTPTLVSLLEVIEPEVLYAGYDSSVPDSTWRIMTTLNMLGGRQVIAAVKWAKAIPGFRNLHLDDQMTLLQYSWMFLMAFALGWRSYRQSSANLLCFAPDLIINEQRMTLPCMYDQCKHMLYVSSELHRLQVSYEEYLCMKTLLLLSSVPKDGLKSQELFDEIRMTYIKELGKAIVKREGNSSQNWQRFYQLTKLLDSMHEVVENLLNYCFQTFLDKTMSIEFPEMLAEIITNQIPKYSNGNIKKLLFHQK
Type: functional
Documented AC50 across a set of compounds

The cases that follow already have their AC50 on record.
• CCOc1cc(CC(=O)N[C@@H](CC(C)C)c2ccccc2N2CCCCC2)ccc1C(=O)O [REPAGLINIDE] = > 30 µM
• CC1(C)O[C@@H]2C[C@H]3[C@@H]4C[C@H](F)C5=CC(=O)C=C[C@]5(C)[C@H]4[C@@H](O)C[C@]3(C)[C@]2(C(=O)CO)O1 [FLUNISOLIDE] = 0.021 µM
• CCCN(CCC)CCc1cccc2c1CC(=O)N2 [ROPINIROLE] = > 30 µM
• CC(=O)S[C@@H]1CC2=CC(=O)CC[C@]2(C)[C@H]2CC[C@@]3(C)[C@@H](CC[C@@]34CCC(=O)O4)[C@H]12 [SPIRONOLACTONE] = 5.5 µM
• CCCN(CCc1cccs1)[C@H]1CCc2c(O)cccc2C1 [ROTIGOTINE] = > 30 µM
• CCc1oc2ccccc2c1C(=O)c1cc(Br)c(O)c(Br)c1 [BENZBROMARONE] = > 30 µM
• C#Cc1cccc(Nc2ncnc3cc(OCCOC)c(OCCOC)cc23)c1 [ERLOTINIB] = > 30 µM

Next compound, please.
INPUT: Hello, please tell me recorded AC50 for this one: `CC(=N)N1CC[C@H](SC2=C(C(=O)O)N3C(=O)[C@H]([C@@H](C)O)[C@H]3C2)C1`
OUTPUT: > 300 µM

----------
Notes on AC50 obtained with 5-hydroxytryptamine receptor 1A (Homo sapiens).
Sequence (P08908 whole entry): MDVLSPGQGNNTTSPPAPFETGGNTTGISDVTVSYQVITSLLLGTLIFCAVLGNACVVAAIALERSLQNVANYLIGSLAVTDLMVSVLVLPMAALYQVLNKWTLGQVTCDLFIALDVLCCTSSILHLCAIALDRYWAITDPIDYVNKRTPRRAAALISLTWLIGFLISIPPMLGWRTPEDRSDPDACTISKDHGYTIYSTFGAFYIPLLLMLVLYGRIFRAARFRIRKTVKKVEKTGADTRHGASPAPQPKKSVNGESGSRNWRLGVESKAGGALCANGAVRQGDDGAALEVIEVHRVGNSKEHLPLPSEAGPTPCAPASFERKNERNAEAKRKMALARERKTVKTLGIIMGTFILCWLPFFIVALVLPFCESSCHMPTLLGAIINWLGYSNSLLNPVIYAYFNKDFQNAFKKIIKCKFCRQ

Worked set:
- CCN(CC)CCOC(=O)C(Cc1cccc2ccccc12)CC1CCCO1 (centres undefined) [NAFRONYL]: > 30 µM
- CCOc1cc(N)c(Cl)cc1C(=O)NCC1CN(Cc2ccc(F)cc2)CCO1 (centres undefined) [MOSAPRIDE]: 5.18 µM
- O=C(O)CC(O)(CC(=O)O)C(=O)O [CITRIC ACID]: > 30 µM

INPUT: For the compound CN(C)C(=O)c1nc(CNC(=O)CN)n(-c2ccc(Cl)cc2C(=O)c2ccccc2Cl)n1 [RILMAZAFONE] , give its reported AC50.
OUTPUT: > 30 µM

INPUT: Using known records, supply AC50 for C[n+]1ccccc1/C=N/O [PRALIDOXIME]
OUTPUT: > 30 µM

----------
List of AC50 tested on B2 bradykinin receptor (Homo sapiens). Also: assay procedure not described here.
Sequence (P30411 whole entry): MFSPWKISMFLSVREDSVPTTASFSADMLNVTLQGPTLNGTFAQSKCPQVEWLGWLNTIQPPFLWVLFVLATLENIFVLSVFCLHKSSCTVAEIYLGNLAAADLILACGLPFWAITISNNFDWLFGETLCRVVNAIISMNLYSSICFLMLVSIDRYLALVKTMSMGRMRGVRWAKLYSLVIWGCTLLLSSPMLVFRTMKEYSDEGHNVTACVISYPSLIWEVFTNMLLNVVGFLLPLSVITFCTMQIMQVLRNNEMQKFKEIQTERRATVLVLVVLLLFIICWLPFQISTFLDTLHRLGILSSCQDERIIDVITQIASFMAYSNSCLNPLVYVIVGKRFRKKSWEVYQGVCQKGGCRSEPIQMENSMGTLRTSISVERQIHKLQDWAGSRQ

• O=C(O)CSCC(=O)NC1CCSC1=O (stereo not drawn) [ERDOSTEINE] = > 30 µM
• CCN(CC)C(=O)C1CN2CCc3cc(OC)c(OC)cc3C2CC1OC(C)=O (stereo not drawn) [BENZQUINAMIDE] = > 30 µM
• CC(C)C[C@H](CN)CC(=O)O [PREGABALIN] = > 30 µM
• CNCCC=C1c2ccccc2CCc2ccccc21 [NORTRIPTYLINE] = > 30 µM
• COc1ccnc(C[S+]([O-])c2nc3ccc(OC(F)F)cc3[nH]2)c1OC (stereo not drawn) [PANTOPRAZOLE] = > 30 µM

INPUT: Name the recorded AC50 of the compound listed here: COc1ccc(Cc2nccc3cc(OC)c(OC)cc23)cc1OC [PAPAVERINE]
OUTPUT: > 30 µM

INPUT: State, in one line, measured AC50 of O=C(Nc1c(Cl)cncc1Cl)c1ccc(OC(F)F)c(OCC2CC2)c1 [ROFLUMILAST]
OUTPUT: > 30 µM

----------
Molecular target: Prostaglandin G/H synthase 1 (Homo sapiens); also: assay procedure not described here
Sequence (P23219 whole entry): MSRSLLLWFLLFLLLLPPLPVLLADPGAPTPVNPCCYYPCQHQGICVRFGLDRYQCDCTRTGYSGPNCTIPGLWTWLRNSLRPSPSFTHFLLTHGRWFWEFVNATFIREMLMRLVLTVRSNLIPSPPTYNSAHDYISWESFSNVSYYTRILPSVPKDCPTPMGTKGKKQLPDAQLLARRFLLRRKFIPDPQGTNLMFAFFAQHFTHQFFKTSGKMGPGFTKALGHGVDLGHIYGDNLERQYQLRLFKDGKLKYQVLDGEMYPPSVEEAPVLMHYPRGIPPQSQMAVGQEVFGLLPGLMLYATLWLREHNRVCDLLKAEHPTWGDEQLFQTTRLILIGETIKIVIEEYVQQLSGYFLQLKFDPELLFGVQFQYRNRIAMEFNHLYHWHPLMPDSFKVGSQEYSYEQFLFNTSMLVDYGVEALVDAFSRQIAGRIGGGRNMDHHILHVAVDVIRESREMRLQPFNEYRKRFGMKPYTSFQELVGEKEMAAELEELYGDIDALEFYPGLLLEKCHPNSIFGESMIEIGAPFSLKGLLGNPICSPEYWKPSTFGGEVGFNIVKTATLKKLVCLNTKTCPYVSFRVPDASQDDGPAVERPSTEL
Format: functional
Below, each entry is listed alongside its reported AC50.

Reference set (6 entries):
• CC(=O)/N=c1/sc(S(N)(=O)=O)nn1C [METHAZOLAMIDE] = > 30 µM
• CC(C)(C)C(=O)NCCCC(=O)O = > 30 µM
• C=CC[C@]1(O)CC[C@H]2[C@@H]3CCC4=CCCC[C@@H]4[C@H]3CC[C@@]21C = 25.5 µM
• CC(=O)Oc1ccccc1C(=O)Nc1ncc([N+](=O)[O-])s1 [NITAZOXANIDE] = 0.0114 µM
• CC(C)(N)C(=O)N[C@H](Cc1c[nH]c2ccccc12)C(=O)N[C@H](Cc1c[nH]c2ccccc12)NC=O = > 30 µM
• COC(=O)C1=C(C)NC(C)=C(C(=O)O[C@H]2CCN(Cc3ccccc3)C2)[C@H]1c1cccc([N+](=O)[O-])c1 = > 30 µM

INPUT: Write AC50 of `NCCc1ccc(O)cc1` ; system used: Prostaglandin G/H synthase 1 (Homo sapiens); also: assay procedure not described here
OUTPUT: > 30 µM

INPUT: For Prostaglandin G/H synthase 1 (Homo sapiens), give AC50 of the listed compound: Cc1cc(CCN2CCN(c3cccc(Cl)c3)CC2)n[nH]1 [MEPIPRAZOLE]
OUTPUT: > 30 µM

INPUT: Quote AC50 with test system Prostaglandin G/H synthase 1 (Homo sapiens) for `CC(C)[N+](C)(CCOC(=O)C1c2ccccc2Oc2ccccc21)C(C)C`; also: assay procedure not described here
OUTPUT: > 30 µM

INPUT: Give reported AC50 for `CNC[C@H](O)c1cccc(O)c1` (Prostaglandin G/H synthase 1 (Homo sapiens))
OUTPUT: > 30 µM

INPUT: Give AC50 for this entry on Prostaglandin G/H synthase 1 (Homo sapiens): `O=C(O)CC(O)(CC(=O)O)C(=O)O`
OUTPUT: > 30 µM

INPUT: Provide Prostaglandin G/H synthase 1 (Homo sapiens) AC50 reading for `CO[C@H]1/C=C/O[C@@]2(C)Oc3c(C)c(O)c4c(O)c(cc(O)c4c3C2=O)NC(=O)/C(C)=C\C=C\[C@H](C)[C@H](O)[C@@H](C)[C@@H](O)[C@@H](C)[C@H](OC(C)=O)[C@@H]1C` .
OUTPUT: > 30 µM

INPUT: With Prostaglandin G/H synthase 1 (Homo sapiens) as the test system, provide measured AC50 for this compound: CC(c1ccc(Cl)c(Cl)c1)N1N=C(N)CC1=O (stereo not drawn)
OUTPUT: > 30 µM

INPUT: Report measured AC50 on Prostaglandin G/H synthase 1 (Homo sapiens); entry: `CN(C)C(=O)Oc1cccc([N+](C)(C)C)c1`
OUTPUT: > 30 µM

INPUT: Answer with AC50 of `CN1CCN(CCCN2c3ccccc3Sc3ccc(S(=O)(=O)N(C)C)cc32)CC1` measured for Prostaglandin G/H synthase 1 (Homo sapiens).
OUTPUT: > 30 µM

INPUT: Fill in AC50 for `Oc1c(I)cc(Cl)c2cccnc12` tested with Prostaglandin G/H synthase 1 (Homo sapiens).
OUTPUT: > 30 µM

INPUT: Write AC50 of `O=C(Nc1cccc2c(=O)cc(-c3nnn[nH]3)oc12)c1ccc(OCCCCc2ccccc2)cc1` ; system used: Prostaglandin G/H synthase 1 (Homo sapiens); also: assay procedure not described here
OUTPUT: 26.7 µM

INPUT: Write down the reported AC50 (system: Prostaglandin G/H synthase 1 (Homo sapiens)) of `CCCCCCCC(=O)N[C@H](CN1CCCC1)[C@H](O)c1ccc2c(c1)OCCO2`; also: assay procedure not described here
OUTPUT: 10.1 µM

----------
Target: cGMP-inhibited 3',5'-cyclic phosphodiesterase 3A (Homo sapiens); also: assay procedure not described here
Sequence (Q14432 whole entry): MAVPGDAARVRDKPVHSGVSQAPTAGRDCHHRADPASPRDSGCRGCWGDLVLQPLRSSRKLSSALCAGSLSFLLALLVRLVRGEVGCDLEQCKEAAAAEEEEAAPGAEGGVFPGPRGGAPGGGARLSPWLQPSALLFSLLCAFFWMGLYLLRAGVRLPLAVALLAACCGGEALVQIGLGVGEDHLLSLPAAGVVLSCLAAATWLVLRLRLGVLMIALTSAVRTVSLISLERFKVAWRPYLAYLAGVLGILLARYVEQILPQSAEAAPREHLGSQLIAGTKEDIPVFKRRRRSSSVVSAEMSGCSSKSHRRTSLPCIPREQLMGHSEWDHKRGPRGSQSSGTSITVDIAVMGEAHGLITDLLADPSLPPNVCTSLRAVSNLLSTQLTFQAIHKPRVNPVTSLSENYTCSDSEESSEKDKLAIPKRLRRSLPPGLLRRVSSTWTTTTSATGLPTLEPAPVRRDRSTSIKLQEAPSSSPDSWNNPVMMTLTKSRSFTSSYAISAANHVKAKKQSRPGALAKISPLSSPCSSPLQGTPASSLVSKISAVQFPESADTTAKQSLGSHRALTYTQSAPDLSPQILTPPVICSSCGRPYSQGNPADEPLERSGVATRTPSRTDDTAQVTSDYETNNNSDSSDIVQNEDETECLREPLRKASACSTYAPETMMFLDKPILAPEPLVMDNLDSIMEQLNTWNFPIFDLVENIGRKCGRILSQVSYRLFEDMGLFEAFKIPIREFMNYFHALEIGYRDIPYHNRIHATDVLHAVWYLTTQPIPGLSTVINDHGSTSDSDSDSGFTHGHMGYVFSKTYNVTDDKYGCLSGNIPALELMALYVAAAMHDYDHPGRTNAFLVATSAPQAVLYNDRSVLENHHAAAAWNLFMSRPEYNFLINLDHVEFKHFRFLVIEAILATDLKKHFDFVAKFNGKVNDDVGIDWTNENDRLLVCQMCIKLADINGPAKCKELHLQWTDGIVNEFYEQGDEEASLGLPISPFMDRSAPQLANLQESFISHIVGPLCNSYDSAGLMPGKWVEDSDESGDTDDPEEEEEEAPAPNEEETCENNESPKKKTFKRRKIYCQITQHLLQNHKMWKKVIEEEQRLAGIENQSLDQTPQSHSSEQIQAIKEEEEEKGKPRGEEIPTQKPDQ
Assay type: functional
VALUE_KIND: AC50

Worked set:
* CN1c2ccccc2C(NCCCCCCC(=O)O)c2ccc(Cl)cc2S1(=O)=O (stereo not given) [TIANEPTINE] | > 30 µM
* Nc1ccn([C@@H]2O[C@H](CO)[C@@H](O)C2(F)F)c(=O)n1 [GEMCITABINE] | 11 µM

INPUT: Assign AC50 to the following record: C[C@]12CC[C@H](O)CC1=CC[C@@H]1[C@@H]2CC[C@]2(C)C(c3cccnc3)=CC[C@@H]12 [ABIRATERONE]
OUTPUT: > 30 µM

INPUT: Please report the measured AC50 for CCOC(=O)NNc1ccc(N(CC)CC(C)O)nn1 (stereo not given) [CADRALAZINE]
OUTPUT: > 30 µM

INPUT: Query AC50 for O=C(O)CSCC(=O)NC1CCSC1=O (stereo not given) [ERDOSTEINE]
OUTPUT: > 30 µM
